test system: GST-Bcl-2; assay: TR-FRET binding assay, Bcl-2; conditions: TR-FRET Ki values
Quantity Kind: Binding selectivity ratio (Bcl-XL Ki/Bcl-2 Ki)

>  <Compound>
CC1(C)CCC(CN2CCN(c3ccc(C(=O)NS(=O)(=O)c4ccc(NCCCN5CCS(=O)(=O)CC5)c([N+](=O)[O-])c4)c(Oc4cccc5[nH]ccc45)c3)CC2)=C(c2ccc(Cl)cc2)C1

>  <Quantitative Result>
599.4

$$$$
>  <Compound>
CC1(C)CCC(CN2CCN(c3ccc(C(=O)NS(=O)(=O)c4ccc(NCC5CN(C6COC6)CCO5)c([N+](=O)[O-])c4)c(Oc4cccc5[nH]cnc45)c3)CC2)=C(c2ccc(Cl)cc2)C1 (stereo not drawn)

>  <Quantitative Result>
228.55

$$$$
>  <Compound>
CC1(C)CCC(CN2CCN(c3ccc(C(=O)NS(=O)(=O)c4cnc(OCC5(F)CCN(CC#N)CC5)c(Cl)c4)c(Oc4cccc5[nH]ncc45)c3)CC2)=C(c2ccc(Cl)cc2)C1

>  <Quantitative Result>
1071

$$$$

---

tested on: GST-Bcl-2; experiment: TR-FRET binding assay, Bcl-2; settings: TR-FRET Ki values
Field: label. Allowed values: condition met (Binding selectivity ratio (Bcl-XL Ki/Bcl-2 Ki) < 500) or condition not met (Binding selectivity ratio (Bcl-XL Ki/Bcl-2 Ki) >= 500).

>  <Compound>
CN1CCN(CCNc2ccc(S(=O)(=O)NC(=O)c3ccc(N4CCN(Cc5ccccc5-c5ccc(Cl)cc5)CC4)cc3Oc3ccccc3)cc2[N+](=O)[O-])CC1 [Example 85]

>  <System Name>
GST-Bcl-2

>  <Assigned Class>
condition met

$$$$
>  <Compound>
CN1CCC(Nc2ccc(S(=O)(=O)NC(=O)c3ccc(N4CCN(CC5=C(c6ccc(Cl)cc6)CC(C)(C)CC5)CC4)c(F)c3Oc3ccc4[nH]ccc4c3)cc2[N+](=O)[O-])CC1 [EXAMPLE 184]

>  <System Name>
GST-Bcl-2

>  <Assigned Class>
condition not met

$$$$
>  <Compound>
CN(C)CCOc1cccc(-c2ccc(Cl)cc2)c1CN1CCN(c2ccc(C(=O)NS(=O)(=O)c3ccc(NCC4CCOCC4)c(S(=O)(=O)C(F)(F)F)c3)c(Oc3ccccc3)c2)CC1 [Example 124]

>  <System Name>
GST-Bcl-2

>  <Assigned Class>
condition met

$$$$
>  <Compound>
CC1(C)CCC(CN2CCN(c3ccc(C(=O)NS(=O)(=O)c4ccc(OCCCS(C)(=O)=O)c([N+](=O)[O-])c4)c(Oc4cccc5[nH]ccc45)c3)CC2)=C(c2ccc(Cl)cc2)C1 [EXAMPLE 316]

>  <System Name>
GST-Bcl-2

>  <Assigned Class>
condition not met

$$$$
>  <Compound>
CC(=O)N1CCC(Nc2ccc(S(=O)(=O)NC(=O)c3ccc(N4CCN(CC5=C(c6ccc(Cl)cc6)CC(C)(C)CC5)CC4)cc3Oc3ccc4[nH]ccc4c3)cc2[N+](=O)[O-])CC1 [EXAMPLE 334]

>  <System Name>
GST-Bcl-2

>  <Assigned Class>
condition not met

$$$$
>  <Compound>
CC1(C)CC(c2ccc(Cl)cc2)=C(CN2CCN(c3ccc(C(=O)NS(=O)(=O)c4cnc(OCC5(F)CCOCC5)c(Cl)c4)c(Oc4cccc5[nH]ncc45)c3)CC2)CO1 [EXAMPLE 465]

>  <System Name>
GST-Bcl-2

>  <Assigned Class>
condition not met

$$$$
>  <Compound>
CC1(C)CCC(CN2CCN(c3ccc(C(=O)NS(=O)(=O)c4ccc(N[C@H]5CC[C@H](N6CCOCC6)CC5)c([N+](=O)[O-])c4)c(Oc4cccc5[nH]cnc45)c3)CC2)=C(c2ccc(Cl)cc2)C1 [EXAMPLE 452]

>  <System Name>
GST-Bcl-2

>  <Assigned Class>
condition not met

$$$$
>  <Compound>
CC1(C)CCC(CN2CCN(c3ccc(C(=O)NS(=O)(=O)c4ccc(NCCCS(C)(=O)=O)c([N+](=O)[O-])c4)c(Oc4cccc5[nH]ccc45)c3)CC2)=C(c2ccc(Cl)cc2)C1 [EXAMPLE 294]

>  <System Name>
GST-Bcl-2

>  <Assigned Class>
condition met

$$$$
>  <Compound>
CC1(C)CCC(CN2CCN(c3ccc(C(=O)NS(=O)(=O)c4cnc(OCC5CCOCC5)c(C#N)c4)c(Oc4ccc5[nH]ccc5c4)c3)CC2)=C(c2ccc(Cl)cc2)C1 [EXAMPLE 333]

>  <System Name>
GST-Bcl-2

>  <Assigned Class>
condition not met

$$$$
>  <Compound>
CC1(C)CCC(CN2CCN(c3ccc(C(=O)NS(=O)(=O)c4ccc(N[C@H]5CC[C@H](N6CCOCC6)CC5)c([N+](=O)[O-])c4)c(Oc4cccc5[nH]ncc45)c3)CC2)=C(c2ccc(Cl)cc2)C1 [EXAMPLE 402]

>  <System Name>
GST-Bcl-2

>  <Assigned Class>
condition met

$$$$

The reported numbers originate from patent US9125913B2.
